Known inhibition at 1 µM of a selection of compounds
target_desc: Human PI3K gamma (Homo sapiens)
Construct: His (N); host or cells: SF9 insect cells (baculovirus)
assay: Human PI3K gamma enzyme assay (HTRF)
Format: biochemical
condition_notes: concentration not given; b1389 states 1.0 μM for PI3K δ and γ; read-out: p110 gamma Percent Inhibition
value_kind: inhibition at 1 µM (%)

                                   compound  endpoint_result
0  CC(=O)Nc1cc(-c2cc(C(c3ccc(Cl)cc3)N3CCC(F)(F)CC3)c(-c3nnc[nH]3)s2)ccn1 (centres unmarked)                8
1  CC(c1ccc2ccccc2c1)c1c(C(=O)O)sc(N2CCOCC2)c1C#N (centres unmarked)               55
2  CC(=O)Nc1cc(-c2cc(C(NCC(F)(F)F)c3ccc(Cl)cc3)c(-c3nnc[nH]3)s2)ccn1 (centres unmarked)                8
3  COc1cccc(F)c1C(O)c1cc(-c2ccncc2)sc1-c1nnc[nH]1 (centres unmarked)               27
4  OC(c1ccc2ncccc2c1)c1cc(-c2ccncc2)sc1-c1nnc[nH]1 (centres unmarked)               30
5  CC(=O)Nc1cc(-c2cc(/C(=C/CCN(C)C)c3ccc(Cl)cc3)c(-c3nnc[nH]3)s2)ccn1               51
6  COC(c1ccc(Cl)cc1)c1cc(-c2ccnc(NC(C)=O)c2)sc1-c1nnc[nH]1 (centres unmarked)                9
7  CC(=O)NC(c1ccc(Cl)cc1)c1c(C(=O)O)sc(N2CCOCC2)c1C#N (centres unmarked)               15

###

target_desc: Human PI3K gamma (Homo sapiens)
Construct: His (N); host or cells: SF9 insect cells (baculovirus)
assay: Human PI3K gamma enzyme assay (HTRF)
Format: biochemical
condition_notes: concentration not given; b1389 states 1.0 μM for PI3K δ and γ; read-out: p110 gamma Percent Inhibition
Hi, to clarify the labels: 1 covers inhibition at 1 µM from 20% upward, 0 covers anything below 20%.

                                   compound  assigned_class
0  N#Cc1c(N2CCOCC2)sc(C(=O)O)c1Cc1ccc2cc(F)ccc2c1               1
1  O=C(O)Cc1sc(N2CCOCC2)nc1Cc1ccc(Cl)c(Cl)c1               0
2  OC(c1ccccc1Cl)c1cc(-c2ccncc2)sc1-c1nnc[nH]1 (centres unmarked)               1
3  CC(=O)Nc1cc(-c2cc(C(NCC3CCNC3)c3ccc(Cl)cc3)c(-c3nnc[nH]3)s2)ccn1 (centres unmarked)               0
4  N#Cc1c(N2CCOCC2)sc(C(=O)O)c1Cc1ccc2sccc2c1               1

###

target_desc: Human PI3K gamma (Homo sapiens, UniProt P48736)
Construct: His (N); host or cells: SF9 insect cells (baculovirus)
Sequence (P48736 whole entry): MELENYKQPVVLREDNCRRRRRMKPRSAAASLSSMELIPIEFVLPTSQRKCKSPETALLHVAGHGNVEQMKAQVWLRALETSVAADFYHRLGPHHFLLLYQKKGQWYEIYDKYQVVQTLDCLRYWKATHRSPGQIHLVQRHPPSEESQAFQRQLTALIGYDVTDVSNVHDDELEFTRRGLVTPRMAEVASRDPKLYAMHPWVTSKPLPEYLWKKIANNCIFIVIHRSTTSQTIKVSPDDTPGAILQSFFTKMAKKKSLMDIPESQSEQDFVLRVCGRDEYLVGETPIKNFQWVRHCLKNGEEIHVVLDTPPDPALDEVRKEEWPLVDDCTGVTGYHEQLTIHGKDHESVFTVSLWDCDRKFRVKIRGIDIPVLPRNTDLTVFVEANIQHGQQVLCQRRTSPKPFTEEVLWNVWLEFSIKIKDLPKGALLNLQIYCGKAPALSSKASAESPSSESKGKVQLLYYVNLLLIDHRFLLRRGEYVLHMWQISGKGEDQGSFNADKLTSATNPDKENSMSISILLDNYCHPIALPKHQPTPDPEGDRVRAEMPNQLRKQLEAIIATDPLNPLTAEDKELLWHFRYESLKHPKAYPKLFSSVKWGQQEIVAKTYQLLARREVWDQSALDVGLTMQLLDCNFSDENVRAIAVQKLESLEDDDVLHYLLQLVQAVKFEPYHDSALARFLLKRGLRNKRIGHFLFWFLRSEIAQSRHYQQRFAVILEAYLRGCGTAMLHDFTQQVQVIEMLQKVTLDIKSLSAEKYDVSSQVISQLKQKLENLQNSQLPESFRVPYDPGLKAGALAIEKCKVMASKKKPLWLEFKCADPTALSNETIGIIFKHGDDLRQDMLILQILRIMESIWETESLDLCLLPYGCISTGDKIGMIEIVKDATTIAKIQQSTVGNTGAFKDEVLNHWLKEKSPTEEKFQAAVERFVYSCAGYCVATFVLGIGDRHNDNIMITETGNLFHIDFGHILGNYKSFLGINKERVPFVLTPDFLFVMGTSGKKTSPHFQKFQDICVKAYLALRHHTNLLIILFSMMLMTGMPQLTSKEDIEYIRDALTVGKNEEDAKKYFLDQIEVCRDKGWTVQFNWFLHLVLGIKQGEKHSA
assay: Human PI3K gamma enzyme assay (HTRF)
Type: biochemical
condition_notes: concentration not given; b1389 states 1.0 μM for PI3K δ and γ; read-out: p110 gamma Percent Inhibition
value_kind: inhibition at 1 µM (%)

                                   compound                               target_desc          value_kind  unit_tag  endpoint_result
0  Oc1cc(-c2sc(-c3ccncc3)nc2Cc2ccc(Cl)cc2)[nH]n1  Human PI3K gamma (Homo sapiens, UniProt P48736)  inhibition at 1 µM         %               38
1  Cc1ccc(F)c(C(O)c2cc(-c3ccncc3)sc2-c2nnc[nH]2)c1 (stereo not shown)  Human PI3K gamma (Homo sapiens, UniProt P48736)  inhibition at 1 µM         %               36
2  COc1ccc(C(O)c2cc(-c3ccncc3)sc2-c2nnc[nH]2)cc1C (stereo not shown)  Human PI3K gamma (Homo sapiens, UniProt P48736)  inhibition at 1 µM         %                8
3  CC(=O)Nc1cc(-c2sc(-c3nnc[nH]3)c(C(O)c3ccc4ccccc4n3)c2C#N)ccn1 (stereo not shown)  Human PI3K gamma (Homo sapiens, UniProt P48736)  inhibition at 1 µM         %               11

###

In this section, each of the compounds is paired with its reported inhibition at 1 µM.
target_desc: Human PI3K gamma (Homo sapiens, UniProt P48736)
Construct: His (N); host or cells: SF9 insect cells (baculovirus)
assay: Human PI3K gamma enzyme assay (HTRF)
Type: biochemical
condition_notes: at a 1.0 μM concentration; read-out: PI3Kγ Percent Inhibition
Where a name gives a salt, the structure may show the parent alone.
value_kind: inhibition at 1 µM

>>> df
                                    compound          value_kind  endpoint_result
 0  N#Cc1c(N2CCOCC2)sc(C(=O)O)c1Cc1ccc(Cl)cc1Cl  inhibition at 1 µM            36.2%
 1  CC(c1ccc(Cl)cc1)c1nc(N2CCOCC2)sc1C(=O)O (stereo not shown)  inhibition at 1 µM             7.3%
 2  COc1ccc(Cc2c(C(=O)O)sc(N3CCOCC3)c2C#N)cc1  inhibition at 1 µM             9.8%
 3  COc1ccc(Cc2c(C(=O)O)sc(N3CCOCC3)c2C#N)c(Cl)c1  inhibition at 1 µM            14.7%
 4     O=C(O)c1sc(C2=CCOCC2)nc1Cc1ccc(Cl)cc1  inhibition at 1 µM            13.2%
 5      O=C(O)c1sc(N2CCOCC2)nc1Cc1ccc(Cl)cc1  inhibition at 1 µM            15.4%
 6       O=C(O)c1sc(N2CCOCC2)nc1Cc1ccc(F)cc1  inhibition at 1 µM             7.6%
 7  N#Cc1c(C2=CCOCC2)sc(C(=O)O)c1Cc1ccc(Cl)cc1  inhibition at 1 µM            23.9%
 8  N#Cc1c(N2CCOCC2)sc(C(=O)O)c1Cc1ccc(Cl)c(F)c1  inhibition at 1 µM            52.6%
 9  N#Cc1c(N2CCOCC2)sc(C(=O)O)c1Cc1ccc(Cl)cc1  inhibition at 1 µM            36.7%
10     N#Cc1ccc(Cc2nc(N3CCOCC3)sc2C(=O)O)cc1  inhibition at 1 µM             9.5%
11  COc1cc(Cc2c(C(=O)O)sc(N3CCOCC3)c2C#N)ccc1Cl  inhibition at 1 µM            49.6%
12  COc1cc(Cl)ccc1Cc1c(C(=O)O)sc(N2CCOCC2)c1C#N  inhibition at 1 µM            25.9%
13      COc1ccc(Cc2nc(N3CCOCC3)sc2C(=O)O)cc1  inhibition at 1 µM             6.4%
14  O=C(O)c1sc(N2CCOCC2)nc1Cc1ccc(OC(F)(F)F)cc1  inhibition at 1 µM             3.9%
15  O=C(O)c1sc(N2CCOCC2)nc1Cc1ccc(C(F)(F)F)cc1  inhibition at 1 µM             6.9%
16  N#Cc1ccc(Cc2c(C(=O)O)sc(N3CCOCC3)c2C#N)cc1  inhibition at 1 µM              12%
17  N#Cc1c(N2CCOCC2)sc(C(=O)O)c1C(N)c1ccc(Cl)cc1 (stereo not shown) [Compound 113, hydrochloride]  inhibition at 1 µM            32.5%
18  COc1ccc(Cc2nc(N3CCOCC3)sc2C(=O)O)c(Cl)c1  inhibition at 1 µM              11%

###

target_desc: Human PI3K alpha (Homo sapiens, UniProt P42336)
Construct: His (N); host or cells: SF9 insect cells (baculovirus)
Sequence (P42336 whole entry): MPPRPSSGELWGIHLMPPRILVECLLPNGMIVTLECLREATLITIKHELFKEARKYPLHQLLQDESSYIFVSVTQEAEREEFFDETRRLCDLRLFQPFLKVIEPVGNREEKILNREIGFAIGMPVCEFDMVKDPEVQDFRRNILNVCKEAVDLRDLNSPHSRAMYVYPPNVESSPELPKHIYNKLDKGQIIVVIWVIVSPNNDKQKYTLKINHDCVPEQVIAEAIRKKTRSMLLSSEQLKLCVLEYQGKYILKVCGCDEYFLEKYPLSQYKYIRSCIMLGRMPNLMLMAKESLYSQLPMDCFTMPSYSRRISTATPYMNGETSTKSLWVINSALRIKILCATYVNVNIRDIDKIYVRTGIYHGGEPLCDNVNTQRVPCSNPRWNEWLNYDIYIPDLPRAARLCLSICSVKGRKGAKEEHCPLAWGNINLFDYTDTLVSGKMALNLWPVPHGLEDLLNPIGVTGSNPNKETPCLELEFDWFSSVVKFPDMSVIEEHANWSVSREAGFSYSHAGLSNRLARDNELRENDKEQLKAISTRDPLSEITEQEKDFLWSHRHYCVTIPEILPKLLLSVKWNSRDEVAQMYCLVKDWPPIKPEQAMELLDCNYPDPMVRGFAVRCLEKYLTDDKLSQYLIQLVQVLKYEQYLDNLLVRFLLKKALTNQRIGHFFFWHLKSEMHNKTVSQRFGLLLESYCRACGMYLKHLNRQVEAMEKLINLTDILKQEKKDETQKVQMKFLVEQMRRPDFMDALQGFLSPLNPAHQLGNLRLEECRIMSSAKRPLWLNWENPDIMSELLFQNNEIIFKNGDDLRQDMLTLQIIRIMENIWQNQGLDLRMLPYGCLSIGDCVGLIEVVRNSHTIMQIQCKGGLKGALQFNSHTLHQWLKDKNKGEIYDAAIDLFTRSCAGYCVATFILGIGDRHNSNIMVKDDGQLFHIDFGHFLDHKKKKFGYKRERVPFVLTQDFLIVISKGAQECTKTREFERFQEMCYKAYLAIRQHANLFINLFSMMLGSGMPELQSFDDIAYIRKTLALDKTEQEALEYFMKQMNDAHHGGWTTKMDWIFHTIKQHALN
Sequence (P27986 whole entry partner): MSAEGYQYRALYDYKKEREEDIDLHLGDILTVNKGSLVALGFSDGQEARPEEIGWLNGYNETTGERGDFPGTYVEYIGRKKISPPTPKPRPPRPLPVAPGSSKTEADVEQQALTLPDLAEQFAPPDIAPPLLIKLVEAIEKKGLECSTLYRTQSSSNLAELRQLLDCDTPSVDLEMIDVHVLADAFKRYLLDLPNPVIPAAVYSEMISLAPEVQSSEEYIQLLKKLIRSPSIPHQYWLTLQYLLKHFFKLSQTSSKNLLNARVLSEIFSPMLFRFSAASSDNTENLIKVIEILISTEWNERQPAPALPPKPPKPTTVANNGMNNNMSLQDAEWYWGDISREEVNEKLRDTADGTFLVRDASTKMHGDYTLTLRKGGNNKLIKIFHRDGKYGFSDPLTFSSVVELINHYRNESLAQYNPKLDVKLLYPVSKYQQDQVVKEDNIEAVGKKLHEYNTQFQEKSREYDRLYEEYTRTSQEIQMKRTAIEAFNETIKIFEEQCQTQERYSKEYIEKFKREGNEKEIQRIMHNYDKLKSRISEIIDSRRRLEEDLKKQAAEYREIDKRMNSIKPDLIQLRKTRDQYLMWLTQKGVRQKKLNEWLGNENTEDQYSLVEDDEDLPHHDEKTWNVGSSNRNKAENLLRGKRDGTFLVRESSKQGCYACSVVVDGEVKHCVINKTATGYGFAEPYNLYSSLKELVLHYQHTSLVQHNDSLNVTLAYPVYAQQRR
assay: Human PI3K alpha enzyme assay (HTRF)
Type: biochemical
condition_notes: concentration not given; b1387 states 1.1 μM for PI3K α and β; read-out: p110 alpha Percent Inhibition
Description: The catalytic subunits of PI3Ks are cloned into either pDEST8(p110 alpha) or pDEST10(p110beta, p110delta, and p110gamma) as N-terminal His tagged fusion proteins using the Gateway system (Invitrogen, catalog#11804-010 for pDEST8 and 11806-015 for pDEST10). […] For the assay methods described above, test compound percent inhibition, at various concentrations, is calculated relative to control (DMSO and EDTA) treated samples. […]
Heads up, the class ranges for inhibition at 1.1 µM are lower range = under 50%, middle range = from 50% up to 80%, upper range = 80% and over

In [3]: df
Out[3]:
                                    molecule  assigned_class
 0  N#Cc1c(N2CCOCC2)sc(C(=O)O)c1Cc1cc2cc(F)ccc2[nH]1    middle range
 1  N#Cc1c(N2CCOC(CO)C2)sc(C(=O)O)c1Cc1ccc2ccccc2c1 (stereo not shown)     lower range
 2  N#Cc1c(N2CCOCC2)sc(C(=O)O)c1C(N)c1ccc2ccccc2c1 (stereo not shown)     upper range
 3  CN[C@@H]1CCN(C(c2ccc(Cl)cc2)c2cc(-c3ccnc(NC(C)=O)c3)sc2-c2nnc[nH]2)C1 (stereo partly shown)     upper range
 4  CC(=O)Nc1cc(-c2cc(C(c3ccc(Cl)cc3)N3CCCC3)c(-c3nnc[nH]3)s2)ccn1 (stereo not shown)    middle range
 5  OC(c1cc(F)ccc1F)c1cc(-c2ccncc2)sc1-c1nnc[nH]1 (stereo not shown)     lower range
 6  CC(=O)Nc1cc(-c2cc(C(OCC3CNC3)c3ccc(Cl)cc3)c(-c3nnc[nH]3)s2)ccn1 (stereo not shown)     upper range
 7   O=C(O)c1sc(-c2ccncc2)cc1Cc1ccc2ccccc2c1    middle range
 8  OC(c1ccccc1-c1cccnc1)c1cc(-c2ccncc2)sc1-c1nnc[nH]1 (stereo not shown)     lower range
 9  CC(=O)Nc1cc(-c2sc(-c3nnc[nH]3)c([S+]([O-])c3ccc(Cl)cc3)c2C#N)ccn1 (stereo not shown)    middle range
10  OC(c1nc(-c2ccccc2)cs1)c1cc(-c2ccncc2)sc1-c1nnc[nH]1 (stereo not shown)     upper range
11  O=C(O)c1cc(-c2sc(-c3ccncc3)nc2Cc2ccc(Cl)cc2)[nH]n1     lower range
12  CC(=O)Nc1cc(-c2cc(C(NCC3CCCC3)c3ccc(Cl)cc3)c(-c3nnc[nH]3)s2)ccn1 (stereo not shown)    middle range
13  COc1cc(C(O)c2cc(-c3ccncc3)sc2-c2ncn[nH]2)c(F)cc1Cl (stereo not shown)    middle range
14  Cc1n[nH]c(C)c1-c1sc(-c2ccncc2)nc1Cc1ccc(Cl)cc1     lower range

Data origin, for the record: patent US8796268B2
